Biological target: Human recombinant FGF-1 (Homo sapiens)
Construct: Human recombinant FGF-1 consisting of 141 residues; purchased Peprotech; host or cells: E. coli
Experiment: STD-NMR initial growth rates (STD0) of trisaccharides in presence of FGF-1
Format: binding
Details: relative to largest anomeric STD0 of the compound (=100)
Exercise: state measured Relative STD0 H1-B for each of the compounds provided.

input: Identify measured Relative STD0 H1-B corresponding to CC(=O)N[C@H]1[C@@H](OC(C)C)O[C@H](COS(=O)(=O)O)[C@@H](O[C@@H]2O[C@@H](C(=O)O)[C@@H](O[C@H]3O[C@H](COS(=O)(=O)O)[C@@H](O)[C@H](O)[C@H]3NS(=O)(=O)O)[C@H](O)[C@H]2OS(=O)(=O)O)[C@@H]1O
output: 100

input: Identify measured Relative STD0 H1-B corresponding to CC(C)O[C@H]1O[C@H](CO)[C@@H](O[C@@H]2O[C@@H](C(=O)O)[C@@H](O[C@H]3O[C@H](COS(=O)(=O)O)[C@@H](O)[C@H](O)[C@H]3NS(=O)(=O)O)[C@H](O)[C@H]2OS(=O)(=O)O)[C@H](O)[C@H]1NS(=O)(=O)O
output: 82

input: Identify measured Relative STD0 H1-B corresponding to CC(C)O[C@H]1O[C@H](COS(=O)(=O)O)[C@@H](O[C@@H]2O[C@@H](C(=O)O)[C@@H](O[C@H]3O[C@H](COS(=O)(=O)O)[C@@H](O)[C@H](O)[C@H]3NS(=O)(=O)O)[C@H](O)[C@H]2OS(=O)(=O)O)[C@H](O)[C@H]1NS(=O)(=O)O
output: 80

input: Identify measured Relative STD0 H1-B corresponding to CC(=O)N[C@H]1[C@@H](OC(C)C)O[C@H](CO)[C@@H](O[C@@H]2O[C@@H](C(=O)O)[C@@H](O[C@H]3O[C@H](COS(=O)(=O)O)[C@@H](O)[C@H](O)[C@H]3NS(=O)(=O)O)[C@H](O)[C@H]2OS(=O)(=O)O)[C@@H]1O
output: 100

* * *

Exercise: state measured STD0 H1-B for each of the compounds provided.
Target: Human recombinant FGF-1 (Homo sapiens, UniProt P05230)
Construct: Human recombinant FGF-1 consisting of 141 residues; purchased Peprotech; host or cells: E. coli
Sequence (P05230 with tags, fused parts or gaps limits assumed): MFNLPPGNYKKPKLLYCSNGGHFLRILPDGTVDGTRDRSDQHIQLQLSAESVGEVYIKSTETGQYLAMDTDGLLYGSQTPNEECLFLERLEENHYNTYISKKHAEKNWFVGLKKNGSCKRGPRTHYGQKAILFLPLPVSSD
Experiment: STD-NMR initial growth rates (STD0) of trisaccharides in presence of FGF-1
Format: binding
Details: anomeric proton of ring B; 600 MHz, 289 K; protein 19 µM, ligand 1.6 mM
Response field accepts a number only; no unit should be typed.

input: Identify measured STD0 H1-B corresponding to CC(C)O[C@H]1O[C@H](CO)[C@@H](O[C@@H]2O[C@@H](C(=O)O)[C@@H](O[C@H]3O[C@H](CO)[C@@H](O)[C@H](O)[C@H]3NS(=O)(=O)O)[C@H](O)[C@H]2OS(=O)(=O)O)[C@H](O)[C@H]1NS(=O)(=O)O [Compound 7]
output: 0.08

input: Identify measured STD0 H1-B corresponding to CC(=O)N[C@H]1[C@@H](OC(C)C)O[C@H](COS(=O)(=O)O)[C@@H](O[C@@H]2O[C@@H](C(=O)O)[C@@H](O[C@H]3O[C@H](COS(=O)(=O)O)[C@@H](O)[C@H](O)[C@H]3NS(=O)(=O)O)[C@H](O)[C@H]2OS(=O)(=O)O)[C@@H]1O [Compound 2]
output: 0.36

input: Identify measured STD0 H1-B corresponding to CC(C)O[C@H]1O[C@H](COS(=O)(=O)O)[C@@H](O[C@@H]2O[C@@H](C(=O)O)[C@@H](O[C@H]3O[C@H](CO)[C@@H](O)[C@H](O)[C@H]3NS(=O)(=O)O)[C@H](O)[C@H]2OS(=O)(=O)O)[C@H](O)[C@H]1NS(=O)(=O)O [Compound 3]
output: 0.23

input: Identify measured STD0 H1-B corresponding to CC(C)O[C@H]1O[C@H](COS(=O)(=O)O)[C@@H](O[C@@H]2O[C@@H](C(=O)O)[C@@H](O[C@H]3O[C@H](COS(=O)(=O)O)[C@@H](O)[C@H](O)[C@H]3NS(=O)(=O)O)[C@H](O)[C@H]2OS(=O)(=O)O)[C@H](O)[C@H]1NS(=O)(=O)O [Compound 1]
output: 0.34
